pKi by entry:
# system.under.test: T1, Human EphA2 (Ecto), C-terminal polyHis (Human, UniProt P29317 24-537)
# T1 construct: extracellular domain; R&D systems 3035-A2 or in-house
# experimental.protocol: FP competition vs Reference Compound C (Study 2)
*1 amine or outer side, *2 acyl side, *3 side chain or, on linkers, in order; H or OH if unused. Bridges are numbered along the chain shown (N, C = ends). Where no end group is shown, it is not given here. TATA = O=C(CC[*:1])N1CN(C(=O)CC[*:2])CN(C(=O)CC[*:3])C1
Value format note: pKi is -log10 of concentration (mol/L); just state the number.

// worked examples, pKi included
binder	pKi
AXDCPLVNPLCLHPGWTC (not fully specified; as BCY6014 (N-terminal (β-Ala)-Sar10; HArg; TATA scaffold on the 3 Cys) + ValLys-MMAE, Bicycle drug conjugate (BDC)) [BCY6061]	7.92
AXDCPLVNPLCLHPGWTC (not fully specified; as BCY6014 (N-terminal (β-Ala)-Sar10; HArg; TATA scaffold on the 3 Cys) + DM1-SS(SO3H)-, Bicycle drug conjugate (BDC)) [BCY6082]	7.98
Ac-CPLVNPLCLHPGWTCLHG (linker 1-8-15 via TATA; not fully specified (C-terminus); also: DM1-SS-(Me)- conjugated, site not given here, Bicycle drug conjugate (BDC)) [BCY6036]	7.73

Prompt: # pKi lookup, item AXDCPLVNPLCLHPGWTC (not fully specified; as BCY6014 (N-terminal (β-Ala)-Sar10; HArg; TATA scaffold on the 3 Cys) + DM1-SS-(Me)-, Bicycle drug conjugate (BDC)) [BCY6032]
Response: 7.94
